target: L. monocytogenes AgrC (Listeria monocytogenes (EGD-e)); experiment: cell-based or functional assay
Bridges are numbered along the chain shown (N, C = ends). Where no end group is shown, it is not given here.
Metric Name: Max Inhibition (agr-GFP reporter, wild-type strain)
Please report the result as a number followed by the unit.

Worked cases, Max Inhibition (agr-GFP reporter, wild-type strain) given:
binder="ASVCAAYF (not fully specified; thiolactone ring Cys4-Phe8 (Cys side chain to C-terminal carboxyl)) [Se AIP-I D1AS6A]" value_reported=0%
binder="NAAKYNPCASYL (bridge 8-C) [Se AIP-III]" value_reported=0%

Please indicate Max Inhibition (agr-GFP reporter, wild-type strain) recorded for ASACAAYF (not fully specified; thiolactone ring Cys4-Phe8 (Cys side chain to C-terminal carboxyl)) [Se AIP-I D1AV3AS6A]
0.06%
